src = ChEMBL document CHEMBL5113439

Tested on: HeLa
assay_comment: Cytotoxicity against human HeLa cells assessed as reduction in cell viability incubated for 72 hrs by MTT assay
Format: functional, cell-based
Numbered stars: 1 amine (or outer) side, 2 acyl side, 3 side chain; on linkers, the order of the positions; unused ones are H or OH. Bridge positions count the residues as written; N and C are the ends. Square brackets hold non-standard residues; d marks the D form. Peptide text beside a SMILES is read from it. Trp(2-yl) = O=C([C@H](Cc1c([*:3])[nH]c2ccccc12)N[*:1])[*:2]; Ile(4R-OH,5-OH) = C[C@H]([C@H](N)C(=O)O)[C@@H](O)CO; X2 = CC[C@H](C)[C@@H](CNNC(=O)[*:2])N[*:1]; X1 = CS[C@H](C)[C@H](N[*:1])C(=O)[*:2]; Hyp = O=C(O)[C@@H]1C[C@@H](O)CN1
endpoint_label: IC50 (nM)

compound="CS[C@H](C)[C@@H]1NC(=O)CNC(=O)[C@@H]2Cc3c([nH]c4ccccc34)SC[C@H](NC(=O)CNC1=O)C(=O)N[C@@H](CC(N)=O)C(=O)N1C[C@H](O)C[C@H]1C(=O)N[C@@H]([C@@H](C)[C@@H](O)CO)C(=O)N2 (cyclo(CN[Hyp][Ile(4R-OH,5-OH)][Trp(2-yl)]G[X1]G); thioether 1-5)" endpoint_label=IC50 output_unit=nM measured_value=4000
compound="CC[C@H](C)[C@@H]1NC(=O)CNC(=O)[C@@H]2Cc3c([nH]c4cc(O)ccc34)[S+]([O-])C[C@H](NC(=O)CNC1=O)C(=O)N[C@@H](CC(N)=O)C(=O)N1C[C@H](O)C[C@H]1C(=O)N[C@@H]([C@@H](C)[C@@H](O)CO)C(=O)N2 (stereo partly drawn)" endpoint_label=IC50 output_unit=nM measured_value=1000
compound="CC[C@H](C)[C@H]1CNNC(=O)N[C@H]2CSc3[nH]c4ccccc4c3C[C@H](NC(=O)[C@H]([C@@H](C)[C@@H](O)CO)NC(=O)[C@@H]3C[C@@H](O)CN3C(=O)[C@H](CC(N)=O)NC2=O)C(=O)NCC(=O)N1 (cyclo(CN[Hyp][Ile(4R-OH,5-OH)][Trp(2-yl)]G[X2]); thioether 1-5)" endpoint_label=IC50 output_unit=nM measured_value=830

====

Reported IC50 at 72 h values follow for various compounds
assay_comment: Cytotoxicity against chinese hamster CHO cells assessed as reduction in cell viability incubated for 72 hrs by MTT assay
Assay type: toxicity, cell-based, Cricetulus griseus
Numbered stars: 1 amine (or outer) side, 2 acyl side, 3 side chain; on linkers, the order of the positions; unused ones are H or OH. Bridge positions count the residues as written; N and C are the ends. Square brackets hold non-standard residues; d marks the D form. Peptide text beside a SMILES is read from it. Trp(2-yl) = O=C([C@H](Cc1c([*:3])[nH]c2ccccc12)N[*:1])[*:2]; Ile(4R-OH,5-OH) = C[C@H]([C@H](N)C(=O)O)[C@@H](O)CO; X2 = CC[C@H](C)[C@@H](CNNC(=O)[*:2])N[*:1]; X1 = CS[C@H](C)[C@H](N[*:1])C(=O)[*:2]; Hyp = O=C(O)[C@@H]1C[C@@H](O)CN1; Pen = CC(C)(S)[C@H](N)C(=O)O
endpoint_label: IC50 at 72 h (µM)

compound="CS[C@H](C)[C@@H]1NC(=O)CNC(=O)[C@@H]2Cc3c([nH]c4ccccc34)SC[C@H](NC(=O)CNC1=O)C(=O)N[C@@H](CC(N)=O)C(=O)N1C[C@H](O)C[C@H]1C(=O)N[C@@H]([C@@H](C)[C@@H](O)CO)C(=O)N2 (cyclo(CN[Hyp][Ile(4R-OH,5-OH)][Trp(2-yl)]G[X1]G); thioether 1-5)" endpoint_label="IC50 at 72 h" measured_value=5.6
compound="CC[C@H](C)[C@H]1CNNC(=O)N[C@H]2CSc3[nH]c4ccccc4c3C[C@H](NC(=O)[C@H]([C@@H](C)[C@@H](O)CO)NC(=O)[C@@H]3C[C@@H](O)CN3C(=O)[C@H](CC(N)=O)NC2=O)C(=O)NCC(=O)N1 (cyclo(CN[Hyp][Ile(4R-OH,5-OH)][Trp(2-yl)]G[X2]); thioether 1-5)" endpoint_label="IC50 at 72 h" measured_value=0.38
compound="CC[C@H](C)[C@@H]1NC(=O)CNC(=O)[C@@H]2Cc3c([nH]c4ccccc34)SC(C)(C)[C@H](NC(=O)CNC1=O)C(=O)N[C@@H](CC(N)=O)C(=O)N1C[C@H](O)C[C@H]1C(=O)N[C@@H]([C@@H](C)[C@@H](O)CO)C(=O)N2 (cyclo(GIG[Pen]N[Hyp][Ile(4R-OH,5-OH)][Trp(2-yl)]); thioether 4-8)" endpoint_label="IC50 at 72 h" measured_value=9.3
